Sourced from PubChem BioAssay AID686979

- protocol: qHTS for Inhibitors of human tyrosyl-DNA phosphodiesterase 1 (TDP1): qHTS in cells in presence of CPT; note: nearly all actives have a fitted effect of over 55% in size; note: potency is the fitted concentration of half-maximal effect
- assaySetup: chicken DT40 Tdp1-/-;hTDP1 cells + 20 nM CPT, ATP luminescence, 48 h; series mostly up to 46.2 µM
In all, about 420,000 compounds went through this assay and about 50,000 (12%) were called active. Inconclusive results (about 26%) are left out. Many of the other results were omitted from the sample, so actives are more common in it than they were.
quantityKind: Potency

# count of solved cases: 5
compound | quantityKind | endpointResult
COc1ccc(N=C2C=CC(=O)O2)cc1 | Potency | 5.17 µM (active)
Cc1ccc(S(=O)(=O)N2CCCC2C(=O)OCc2nc3sc(C)c(C)c3c(=O)[nH]2)cc1 (stereo unspecified) | Potency | inactive
O=C(NOCc1ccccc1)c1cccc([N+](=O)[O-])c1 | Potency | inactive
CC1C(=O)N(Cc2ccccc2)c2ccccc2N1C(=O)c1ccccc1 (stereo unspecified) | Potency | 23.1 µM (active)
O=C(Nc1ccccc1Br)c1cc(CN2CCCC2)on1 | Potency | inactive

Task item: Recall and state the measured Potency for CCC1(C(=O)c2ccccc2)C(c2cccc([N+](=O)[O-])c2)C1(C(=O)OC)C(=O)OC (stereo unspecified) .
Reply: 23.1 µM (active)

---

- protocol: qHTS for Inhibitors of human tyrosyl-DNA phosphodiesterase 1 (TDP1): qHTS in cells in presence of CPT; note: nearly all actives have a fitted effect of over 55% in size
- assaySetup: chicken DT40 Tdp1-/-;hTDP1 cells + 20 nM CPT, ATP luminescence, 48 h; series mostly up to 46.2 µM
Screen size: about 420,000 compounds; about 50,000 (12%) were called active. About 26% were inconclusive and are not listed. Calls come from the whole dose curve; as a rule, active = well fitted inhibition curve with a large enough effect; inconclusive = small, poorly fitted or top-dose-only effect; inactive = flat fitted curve, though single readings scatter. This is one part of a sample in which actives are shown more often than they occur.
Give your call using only these classes: 1.0 (active), 0.0 (inactive)

Check out these entries, answers already filled in.
compound | discreteLabel
CCCCCCSc1ccc([C@@H]2[C@@H]3C(=O)N(CC)C(=O)[C@@H]3[C@]3(C(=O)OC)CCCCN23)cc1OC | 1.0
COC(=O)c1sc(NC(=O)COC(=O)C2CCC2)c(C(=O)OC)c1C | 0.0
CN1CCN(C(=O)/C(=C\c2ccc3c(c2)OCO3)NC(=O)c2cccs2)CC1 | 0.0

Task item: GET /call?item= CC(=O)N1C(=O)/C(=C2\SC(=S)N(NC(=O)c3ccc(O)cc3)C2=O)c2ccccc21 returns the recorded outcome of this test.
Reply: 0.0

Task item: GET /call?item= COc1ccc(C2NC(=O)N(C)C3=C2C(=O)N(c2ccc(C(=O)O)cc2)C3)cc1 (stereo unspecified) returns the recorded outcome of this test.
Reply: 0.0

Task item: GET /call?item= CCCCn1c(N)c(N(CC)C(=O)c2ccccc2C(F)(F)F)c(=O)[nH]c1=O returns the recorded outcome of this test.
Reply: 0.0

Task item: GET /call?item= COCCCNC(=S)N(CCN(C)C)Cc1cc2cc3c(cc2[nH]c1=O)OCCO3 returns the recorded outcome of this test.
Reply: 0.0

Task item: GET /call?item= C[C@H]1COc2cc(N3CCSCC3)ccc2S(=O)(=O)N1 returns the recorded outcome of this test.
Reply: 0.0

Task item: GET /call?item= CCN(CC(=O)Nc1c(F)cccc1F)C(=O)c1ccc(-c2ccc(C(C)=O)cc2)o1 returns the recorded outcome of this test.
Reply: 0.0

Task item: GET /call?item= CCSc1nc(O)c(C(c2cccc(OC)c2)c2c(O)nc(SCC)[nH]c2=O)c(=O)[nH]1 returns the recorded outcome of this test.
Reply: 0.0

Task item: GET /call?item= CN1CCN(c2ccncc2S(=O)(=O)N2CCCC2)CC1 returns the recorded outcome of this test.
Reply: 0.0

Task item: GET /call?item= Cc1cccc(N=C2SC(C)CN2C(=O)CN2C(=O)NC3(CCCC3)C2=O)c1 (stereo unspecified) returns the recorded outcome of this test.
Reply: 0.0

Task item: GET /call?item= CCCCC12CN3CC(C)(CN(C1)C3c1ccc(O)c(OC)c1)C2=O (stereo unspecified) returns the recorded outcome of this test.
Reply: 0.0

Task item: GET /call?item= O=C(COC(=O)c1cc2c(s1)CCCC2)NCc1ccccc1Cl returns the recorded outcome of this test.
Reply: 0.0

Task item: GET /call?item= CCS(=O)(=O)N1Cc2ccccc2CC1C(=O)Nc1ccc(OC)cc1OC (stereo unspecified) returns the recorded outcome of this test.
Reply: 0.0

Task item: GET /call?item= COc1ccc(CCNC(=O)C(=O)NCC2OCCN2S(=O)(=O)c2cccs2)cc1OC (stereo unspecified) returns the recorded outcome of this test.
Reply: 0.0

Task item: GET /call?item= CC1(c2ccccc2)NC(=O)N(CC(=O)Nc2cc(Cl)ccc2N2CCOCC2)C1=O (stereo unspecified) returns the recorded outcome of this test.
Reply: 0.0

Task item: GET /call?item= O=C(NNS(=O)(=O)c1ccc(F)cc1)c1ccc([N+](=O)[O-])cc1Cl returns the recorded outcome of this test.
Reply: 0.0

Task item: GET /call?item= CC(=O)N(CN1C(=O)C2C3C=CC(C3)C2C1=O)c1cccc(Cl)c1 (stereo unspecified) returns the recorded outcome of this test.
Reply: 0.0

Task item: GET /call?item= Cc1ccc(OCCn2c(CNc3ccccc3C)nc3ccccc32)cc1 returns the recorded outcome of this test.
Reply: 1.0

Task item: GET /call?item= Cc1ccc(OCc2nc3ccccc3n2C)cc1 returns the recorded outcome of this test.
Reply: 0.0
